- Assay System: T1, EsCas13d, nuclease-dead (Eubacterium siraeum, UniProt B0MS50, R295A;H300A;R849A;H854A)
- T1 sequence: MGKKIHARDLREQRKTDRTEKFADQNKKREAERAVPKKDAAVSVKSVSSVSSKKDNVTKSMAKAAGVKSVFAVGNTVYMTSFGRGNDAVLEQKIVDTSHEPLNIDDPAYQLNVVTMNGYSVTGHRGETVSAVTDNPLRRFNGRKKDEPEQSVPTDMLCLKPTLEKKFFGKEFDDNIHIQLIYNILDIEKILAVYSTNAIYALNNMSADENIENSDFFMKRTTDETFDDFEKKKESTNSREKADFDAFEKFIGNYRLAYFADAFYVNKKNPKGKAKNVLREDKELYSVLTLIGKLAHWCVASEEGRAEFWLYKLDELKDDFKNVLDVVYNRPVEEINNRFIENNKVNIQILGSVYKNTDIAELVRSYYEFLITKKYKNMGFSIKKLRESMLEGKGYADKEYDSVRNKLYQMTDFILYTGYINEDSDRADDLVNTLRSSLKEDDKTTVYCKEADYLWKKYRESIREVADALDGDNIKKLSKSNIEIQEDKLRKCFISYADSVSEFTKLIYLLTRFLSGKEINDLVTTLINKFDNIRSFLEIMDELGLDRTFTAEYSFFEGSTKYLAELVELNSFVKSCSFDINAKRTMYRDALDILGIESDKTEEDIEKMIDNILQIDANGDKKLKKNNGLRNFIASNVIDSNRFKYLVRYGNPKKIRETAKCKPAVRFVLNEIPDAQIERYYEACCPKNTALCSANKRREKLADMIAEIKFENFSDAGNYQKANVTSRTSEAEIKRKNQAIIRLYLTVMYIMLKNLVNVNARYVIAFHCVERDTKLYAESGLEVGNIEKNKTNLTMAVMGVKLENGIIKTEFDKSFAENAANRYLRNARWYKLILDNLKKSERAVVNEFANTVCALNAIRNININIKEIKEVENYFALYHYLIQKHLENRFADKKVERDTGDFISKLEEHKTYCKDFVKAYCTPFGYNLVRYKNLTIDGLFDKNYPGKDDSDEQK
- Test: crRNA (strand 1, pre-loaded); Mg2+; 40 mM Tris-HCl pH 7.5, 150 mM NaCl, 6 mM MgCl2, 1 mM DTT, 0.1% Tween-20, 0.2 mg/ml BSA; 25 C; 10 min per concentration, then washed
- Settings: tags: His6-TwinStrep-SUMO cleaved; N-terminal SNAP kept (SNAP-Surface 488); label: 3' end held by stalled T7 RNA polymerase
Below, each entry is listed alongside its reported Kd.
Provide the reading as a plain figure in µM.

Could you share which Kd value was measured for target 1 A9U,A20U (mixed) RNA 1: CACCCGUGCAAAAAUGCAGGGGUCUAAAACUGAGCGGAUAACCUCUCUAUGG RNA 2: GGGAAUGGAUCCACAUCUACGAAUUCGUACCUUAGAGAGGUUUUCCGCUCACCGAGAUCGGAAGAGCACACGU ?
0.043

Which Kd value belongs to target 1 insG 3' of 4,insU 3' of 4 (mixed) RNA 1: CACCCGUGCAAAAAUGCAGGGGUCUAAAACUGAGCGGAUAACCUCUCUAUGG RNA 2: GGGAAUGGAUCCACAUCUACGAAUUCGUACCAUAGAGAGGUUAUCCGCGUUCACCGAGAUCGGAAGAGCACACGU ?
0.007

Fill blank: measured Kd of the binder target 2 MT 5'PFS GUU 3'PFS AUU (mixed) RNA 1: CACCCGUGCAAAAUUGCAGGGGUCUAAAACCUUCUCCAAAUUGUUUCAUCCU RNA 2: GGGAAUGGAUCCACAUCUACGAAUUCGUUAGGAUGAAACAAUUUGGAGAAGAUUAGAUCGGAAGAGCACACGU is ____.
0.0116

Continue with the binder presented below.
What measured Kd goes with target 3 insC 3' of 8,insG 3' of 8 (mixed) RNA 1: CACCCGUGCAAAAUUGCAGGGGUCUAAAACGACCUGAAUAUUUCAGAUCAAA RNA 2: GGGAAUGGAUCCACAUCUACGAAUUCGUUUUUGAUCUGAAAUAUCGUCAGGUCUGCAGAUCGGAAGAGCACACGU ?
0.079
